For each record, write down the corresponding log10(Kd).
- TGT: human LH-RH receptor (Homo sapiens)
- Construct: expressed in transfected cells
- Sequence (P30968 1-328): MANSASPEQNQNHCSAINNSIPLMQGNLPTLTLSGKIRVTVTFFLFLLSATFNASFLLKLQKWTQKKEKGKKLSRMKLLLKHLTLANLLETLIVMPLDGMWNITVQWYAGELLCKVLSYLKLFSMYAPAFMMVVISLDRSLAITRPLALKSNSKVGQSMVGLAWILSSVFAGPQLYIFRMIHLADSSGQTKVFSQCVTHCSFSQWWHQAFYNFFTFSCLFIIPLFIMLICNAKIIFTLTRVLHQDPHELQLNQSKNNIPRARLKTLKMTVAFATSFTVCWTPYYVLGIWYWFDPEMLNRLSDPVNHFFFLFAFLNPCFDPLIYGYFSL
- PROCEDURE DETAILS: Competitive binding test (displacement of [125I] Cetrorelix) on cell clone L3.5/78
- CONDITIONS: mean values from various experiments, number of experiments in brackets; read-out: Affinity human LH-RH receptor (dissociation constant Kd)
- Experimental: Method for the determination of the binding affinity (dissociation constant Kd): The binding affinity was determined by a competitive binding test ("displacement binding experiment"; Beckers et al. Eur. J. Biochem. 231, 535-543, 1995). The radiolabelled ligand used is [^125 I] Cetrorelix (specific activity 5-10×10^5 dpm/pmol; dissolved in 20% v:v acetonitrile, 0.2% w:v albumin, 0.1% w:v TFA, ~80% v:v aqua). The binding ability of the iodinated peptide is between 60% and 85%. […]
*1 amine or outer side, *2 acyl side, *3 side chain or, on linkers, in order; H or OH if unused. Where a SMILES comes first, the peptide text is derived from it. Side-chain parts run from the residue outwards. [ ]: non-standard residue; d: D form. The star is where a group is joined. NH(4-amidinophenyl) = N=C(N)c1ccc(N*)cc1; dPhe(4-Cl) = N[C@H](Cc1ccc(Cl)cc1)C(=O)O; d2Nal = N[C@H](Cc1ccc2ccccc2c1)C(=O)O; dCit = NC(=O)NCCC[C@@H](N)C(=O)O; d3Pal = N[C@H](Cc1cccnc1)C(=O)O; Suc = O=C(CCC(=O)[*:2])[*:1]
A value of 2 here means Kd of 100 in nM, since values are log10.

{"COMPOUND": "CC(=O)N[C@H](Cc1ccc2ccccc2c1)C(=O)N[C@H](Cc1ccc(Cl)cc1)C(=O)N[C@H](Cc1cccnc1)C(=O)N[C@@H](CO)C(=O)N[C@@H](Cc1ccc(O)cc1)C(=O)N[C@H](CCCCNC(=O)C1CNC(=O)N1)C(=O)N[C@@H](CC(C)C)C(=O)N[C@@H](CCCNC(=N)N)C(=O)N1CCC[C@H]1C(=O)N[C@H](C)C(N)=O (single isomer, unassigned) [Example 3]", "TGT": "human LH-RH receptor (Homo sapiens)", "log10(Kd)": -0.77}
{"COMPOUND": "CC(=O)N[C@H](Cc1ccc2ccccc2c1)C(=O)N[C@H](Cc1ccc(Cl)cc1)C(=O)N[C@H](Cc1cccnc1)C(=O)N[C@@H](CO)C(=O)N[C@@H](Cc1ccc(O)cc1)C(=O)N[C@H](CCCCNC(=O)CCC(=O)Nc1ccc(C(=N)N)cc1)C(=O)N[C@@H](CC(C)C)C(=O)N[C@@H](CCCNC(=N)N)C(=O)N1CCC[C@H]1C(=O)N[C@H](C)C(N)=O [Example 4] (Ac-[d2Nal][dPhe(4-Cl)][d3Pal]SY[dK]([Suc-NH(4-amidinophenyl)])LRP[dA]-NH2)", "TGT": "human LH-RH receptor (Homo sapiens)", "log10(Kd)": -0.69}
{"COMPOUND": "CC(=O)N[C@H](Cc1ccc2ccccc2c1)C(=O)N[C@H](Cc1ccc(Cl)cc1)C(=O)N[C@H](Cc1cccnc1)C(=O)N[C@@H](CO)C(=O)N[C@@H](Cc1ccc(O)cc1)C(=O)N[C@H](CCCCNC(=O)C1CNC(=O)N1)C(=O)N[C@@H](CC(C)C)C(=O)N[C@@H](CCCNC(=N)N)C(=O)N1CCC[C@H]1C(=O)N[C@H](C)C(N)=O (single isomer, unassigned) [Example 1]", "TGT": "human LH-RH receptor (Homo sapiens)", "log10(Kd)": -0.51}
{"COMPOUND": "CC(=O)N[C@H](Cc1ccc2ccccc2c1)C(=O)N[C@H](Cc1ccc(Cl)cc1)C(=O)N[C@H](Cc1cccnc1)C(=O)N[C@@H](CO)C(=O)N[C@@H](Cc1ccc(O)cc1)C(=O)N[C@H](CCCNC(N)=O)C(=O)N[C@@H](CC(C)C)C(=O)N[C@@H](CCCNC(=N)N)C(=O)N1CCC[C@H]1C(=O)N[C@H](C)C(N)=O [Cetrorelix, reference compound] (Ac-[d2Nal][dPhe(4-Cl)][d3Pal]SY[dCit]LRP[dA]-NH2)", "TGT": "human LH-RH receptor (Homo sapiens)", "log10(Kd)": -0.69}

Please examine the following record next.
// query Retrieve log10(Kd) measured for N=C(N)c1ccc(NC(=O)CCC(=O)NCCCCC(NC(=O)OCc2ccccc2)C(N)=O)cc1.O=C(O)C(F)(F)F (centres unmarked) and print it.
// result 3.03
